The reader will find reported inhibition at 1 µM values listed item by item below.
# TARGET_OF_ASSAY: PI3 Kinase alpha (p110 alpha/p85 alpha) (Homo sapiens, UniProt P42336)
# Construct: purchased Invitrogen
# Sequence (P42336 whole entry): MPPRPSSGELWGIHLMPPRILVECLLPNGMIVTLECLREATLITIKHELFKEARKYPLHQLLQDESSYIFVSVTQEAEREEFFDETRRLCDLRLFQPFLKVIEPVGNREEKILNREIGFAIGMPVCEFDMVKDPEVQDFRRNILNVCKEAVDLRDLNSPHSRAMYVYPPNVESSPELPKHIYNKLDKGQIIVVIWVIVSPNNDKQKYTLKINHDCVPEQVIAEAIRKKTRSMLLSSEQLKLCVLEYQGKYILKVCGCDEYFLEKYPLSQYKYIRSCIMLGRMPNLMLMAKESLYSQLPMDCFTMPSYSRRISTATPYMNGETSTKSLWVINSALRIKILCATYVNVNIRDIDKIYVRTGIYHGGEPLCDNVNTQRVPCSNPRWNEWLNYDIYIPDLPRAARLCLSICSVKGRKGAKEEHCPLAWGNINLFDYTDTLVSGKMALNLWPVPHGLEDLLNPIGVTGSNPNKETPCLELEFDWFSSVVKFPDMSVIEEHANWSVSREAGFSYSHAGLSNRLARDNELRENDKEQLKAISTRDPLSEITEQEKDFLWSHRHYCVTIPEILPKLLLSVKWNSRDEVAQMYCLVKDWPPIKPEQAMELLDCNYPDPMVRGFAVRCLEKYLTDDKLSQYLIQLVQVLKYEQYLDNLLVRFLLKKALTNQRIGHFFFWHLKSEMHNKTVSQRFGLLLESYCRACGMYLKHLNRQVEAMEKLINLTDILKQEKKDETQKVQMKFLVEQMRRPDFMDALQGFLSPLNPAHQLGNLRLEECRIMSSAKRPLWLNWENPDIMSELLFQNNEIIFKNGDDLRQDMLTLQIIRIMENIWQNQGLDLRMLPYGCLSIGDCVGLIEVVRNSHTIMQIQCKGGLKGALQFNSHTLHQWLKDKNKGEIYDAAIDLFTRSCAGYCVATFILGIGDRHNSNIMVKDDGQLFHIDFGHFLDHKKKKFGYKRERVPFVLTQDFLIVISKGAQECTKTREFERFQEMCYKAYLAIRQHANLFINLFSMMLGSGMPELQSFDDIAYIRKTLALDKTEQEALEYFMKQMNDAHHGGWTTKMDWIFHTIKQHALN
# Sequence (P27986 whole entry partner): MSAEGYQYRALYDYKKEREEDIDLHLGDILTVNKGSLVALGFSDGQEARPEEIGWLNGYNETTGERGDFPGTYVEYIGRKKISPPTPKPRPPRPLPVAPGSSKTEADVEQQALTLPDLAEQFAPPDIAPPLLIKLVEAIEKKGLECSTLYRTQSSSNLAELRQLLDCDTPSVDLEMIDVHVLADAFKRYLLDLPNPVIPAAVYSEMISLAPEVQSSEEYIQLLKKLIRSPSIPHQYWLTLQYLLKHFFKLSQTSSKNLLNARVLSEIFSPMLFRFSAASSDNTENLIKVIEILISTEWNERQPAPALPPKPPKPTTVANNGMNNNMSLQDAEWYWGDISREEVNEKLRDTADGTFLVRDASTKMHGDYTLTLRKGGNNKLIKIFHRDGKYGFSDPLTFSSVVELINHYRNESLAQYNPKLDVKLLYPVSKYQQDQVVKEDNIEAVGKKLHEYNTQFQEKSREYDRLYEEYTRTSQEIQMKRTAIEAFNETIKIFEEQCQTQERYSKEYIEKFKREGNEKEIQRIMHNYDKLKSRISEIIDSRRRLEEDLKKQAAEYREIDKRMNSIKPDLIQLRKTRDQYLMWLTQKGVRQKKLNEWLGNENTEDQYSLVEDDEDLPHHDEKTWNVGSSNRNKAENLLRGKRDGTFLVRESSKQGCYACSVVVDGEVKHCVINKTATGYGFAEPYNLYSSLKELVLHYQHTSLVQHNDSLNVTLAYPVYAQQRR
# EXPERIMENTAL_PROTOCOL: PI3K TR-FRET assay (Transcreener ADP2)
# Type: biochemical
# REPORTED_CONDITIONS: 1 uM compound; read-out: PI3K % Inhib@1 uM
MEASUREMENT_KIND: inhibition at 1 µM

>>> recorded_measurement("C[C@H]1COCCN1c1nc(OC2CCN(C(=O)N(C)C)C2)nc(-c2cnc(N)s2)n1 (stereo partly shown)")
"> 50%"
>>> recorded_measurement("C[C@H]1COCCN1c1nc(Oc2ccc(C(=O)N(C)C)cc2)nc(C2=CC=C(N)N(O)C2)n1")
"< 50%"
>>> recorded_measurement("CN(C)C(=O)c1ccc(Oc2nc(-c3cnc(N)s3)nc(N3C[C@H]4C[C@@H](C3)O4)n2)cc1")
"< 50%"
>>> recorded_measurement("C[C@H]1CN(c2nc(Oc3ccc(C(=O)N(C)C)cc3F)nc(-c3cnc(N)s3)n2)[C@@H](C)CO1")
"< 50%"

----------
# TARGET_OF_ASSAY: Recombinant mTOR (FRAP1) (Homo sapiens, UniProt P42345)
# Construct: purchased Invitrogen
# Sequence (P42345 1360-2549 limits assumed): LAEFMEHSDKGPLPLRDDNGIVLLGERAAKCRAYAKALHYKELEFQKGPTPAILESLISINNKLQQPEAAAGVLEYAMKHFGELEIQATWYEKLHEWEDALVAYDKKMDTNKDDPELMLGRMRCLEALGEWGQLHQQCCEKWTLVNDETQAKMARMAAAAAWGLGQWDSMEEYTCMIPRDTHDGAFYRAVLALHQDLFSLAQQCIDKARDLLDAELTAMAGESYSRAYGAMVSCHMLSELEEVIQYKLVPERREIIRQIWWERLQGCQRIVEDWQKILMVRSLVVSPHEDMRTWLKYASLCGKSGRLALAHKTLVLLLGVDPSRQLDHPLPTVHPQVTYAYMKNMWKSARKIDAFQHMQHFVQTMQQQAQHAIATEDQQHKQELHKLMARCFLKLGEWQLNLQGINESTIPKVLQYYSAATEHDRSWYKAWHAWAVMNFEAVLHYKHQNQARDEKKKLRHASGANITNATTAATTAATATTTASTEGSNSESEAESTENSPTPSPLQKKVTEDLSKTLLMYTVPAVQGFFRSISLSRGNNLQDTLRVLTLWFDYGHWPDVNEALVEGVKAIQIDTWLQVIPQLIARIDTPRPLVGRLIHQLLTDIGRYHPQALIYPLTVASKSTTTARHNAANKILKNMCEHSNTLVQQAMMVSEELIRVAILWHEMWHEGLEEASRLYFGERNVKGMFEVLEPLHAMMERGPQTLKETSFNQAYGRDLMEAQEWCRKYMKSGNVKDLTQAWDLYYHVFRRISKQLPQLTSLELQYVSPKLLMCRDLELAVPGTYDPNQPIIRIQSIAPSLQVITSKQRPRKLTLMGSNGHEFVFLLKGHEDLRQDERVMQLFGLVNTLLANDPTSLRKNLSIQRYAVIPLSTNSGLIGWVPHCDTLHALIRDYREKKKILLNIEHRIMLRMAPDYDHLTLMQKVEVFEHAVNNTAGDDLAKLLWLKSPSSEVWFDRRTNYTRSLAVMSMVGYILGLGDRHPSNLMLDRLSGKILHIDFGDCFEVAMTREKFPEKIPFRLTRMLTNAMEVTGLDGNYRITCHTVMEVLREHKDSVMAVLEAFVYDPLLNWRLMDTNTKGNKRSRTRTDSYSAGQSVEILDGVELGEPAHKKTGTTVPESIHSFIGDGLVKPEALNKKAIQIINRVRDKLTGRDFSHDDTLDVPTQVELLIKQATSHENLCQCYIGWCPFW
# EXPERIMENTAL_PROTOCOL: mTOR in vitro kinase assay (TR-FRET, phosphorylation of GFP-4E-BP1)
# Format: biochemical
# REPORTED_CONDITIONS: 1 uM compound; read-out: mTOR % Inhib@1 uM
MEASUREMENT_KIND: inhibition at 1 µM

>>> recorded_measurement("CN(C)C(=O)c1ccc(Oc2nc(-c3cnc(N)s3)nc(N3CCCOCC3)n2)cc1 [Compound 10192]")
"< 50%"
>>> recorded_measurement("CN(C)C(=O)c1ccc(Oc2nc(-c3cnc(N)s3)nc(N3CCO[C@@H]4CCC[C@H]43)n2)cc1 [Compound 10132]")
"> 50%"
>>> recorded_measurement("CN(C)C(=O)c1ccc(Oc2nc(-c3cnc(N)s3)nc(N3[C@@H]4CC[C@H]3COC4)n2)cc1 [Compound 10011]")
"> 50%"
>>> recorded_measurement("CN(C)C(=O)c1ccc(Oc2nc(-c3cccc4[nH]ncc34)nc(N3[C@@H]4CC[C@H]3COC4)n2)cc1 [Compound 10174]")
"< 50%"
>>> recorded_measurement("C[C@H]1COCCN1c1nc(Oc2ccc(C(=O)N(C)C)cc2)nc(-c2ccc(N)nc2)n1 [Compound 10096]")
"> 50%"
>>> recorded_measurement("Nc1ccc(-c2nc(CO)nc(N3CCOCC3)n2)cn1 [Compound 10176]")
"< 50%"
>>> recorded_measurement("CN(C)C(=O)c1ccc(Oc2nc(-c3ccc4[nH]ncc4c3)nc(N3C4CCC3COC4)n2)c(F)c1 [Compound 10136]")
"> 50%"

----------
The reader will find reported IC50 values listed item by item below.
# TARGET_OF_ASSAY: PI3 Kinase alpha (p110 alpha/p85 alpha) (Homo sapiens)
# EXPERIMENTAL_PROTOCOL: PI3K TR-FRET assay (Transcreener ADP2)
# REPORTED_CONDITIONS: PI3K alpha, 1 μM ATP, 50 μM PIP2
MEASUREMENT_KIND: IC50

>>> recorded_measurement("CC1OCCN(c2nc(Oc3ccc(C(=O)N(C)C)cc3F)nc(-c3cnc(N)s3)n2)C1C (stereo not drawn) [Compound 10159]")
"< 1 µM"
>>> recorded_measurement("C[C@@H]1COC[C@H](C)N1c1nc(Oc2ccc(C(=O)N(C)C)cc2)nc(-c2cnc(N)s2)n1 [Compound 10079]")
"> 1 µM"
>>> recorded_measurement("C[C@H]1COCCN1c1nc(OC2CCN(C(=O)N(C)C)C2)nc(-c2cnc(N)s2)n1 (stereo partly drawn) [Compound 10138]")
"< 1 µM"
>>> recorded_measurement("C[C@H]1CN(c2nc(Oc3ccc(C(=O)N(C)C)cc3)nc(-c3cnc(N)s3)n2)[C@@H](C)CO1 [Compound 10077]")
"< 1 µM"
>>> recorded_measurement("CN(C)C(=O)c1ccc(Oc2nc(-c3ccc4[nH]ncc4c3)nc(N3C4CCC3COC4)n2)c(F)c1 [Compound 10136]")
"> 10 µM"
>>> recorded_measurement("CN(C)C(=O)c1ccc(Oc2nc(-c3cnc(N)s3)nc(N3CCO[C@H]4CCC[C@@H]43)n2)c(F)c1 [Compound 10146]")
"< 1 µM"
>>> recorded_measurement("CN(C)C(=O)c1ccc(Oc2nc(-c3cnc(N)s3)nc(N3CCSCC3)n2)cc1 [Compound 10118]")
"> 1 µM"
>>> recorded_measurement("C[C@H]1COCCN1c1nc(Oc2ccc(C(=O)N(C)C)cc2F)nc(-c2ccc(N)nc2)n1 [Compound 10058]")
"< 1 µM"
>>> recorded_measurement("C[C@H]1COCCN1c1nc(Oc2ccc(C(=O)N(C)C)cc2F)nc(-c2cnc(N)s2)n1 [Compound 10010]")
"< 1 µM"
>>> recorded_measurement("CN(C)C(=O)c1ccc(Oc2nc(-c3cnc4[nH]ccc4c3)nc(N3CCOCC3)n2)c(F)c1 [Compound 10158]")
"< 1 µM"
>>> recorded_measurement("CN(C)C(=O)c1ccc(Oc2nc(-c3cnc(N)s3)nc(N3CCOCC3(C)C)n2)cc1 [Compound 10128]")
"< 1 µM"
>>> recorded_measurement("C[C@@H]1OCCN(c2nc(Oc3ccc(C(=O)N(C)C)cc3)nc(-c3cnc(N)s3)n2)[C@H]1C [Compound 10142]")
"> 10 µM"
>>> recorded_measurement("C[C@H]1COCCN1c1nc(Oc2ccc(C(=O)N(C)C)cc2F)nc(-c2cnc(N)nc2)n1 [Compound 10204]")
"< 1 µM"
>>> recorded_measurement("C[C@H]1COCCN1c1nc(Oc2ccc(C(=O)N(C)C)cc2F)nc(-c2ccc3[nH]ccc3c2)n1 [Compound 10100]")
"< 1 µM"
>>> recorded_measurement("C[C@H]1COCCN1c1nc(Oc2ccc(C(=O)N(C)C)cc2)nc(-c2cnc(NC(=O)NC3CC3)s2)n1 [Compound 10093]")
"< 1 µM"

The measured values listed here are drawn from patent US9630958B2.
